molecular target: CYP3A4 (Homo sapiens, UniProt P08684); assay: CYP inhibition; format: in vitro ADME; details: read-out: Inhibition of human CYP 3A4
Sequence (P08684 whole entry): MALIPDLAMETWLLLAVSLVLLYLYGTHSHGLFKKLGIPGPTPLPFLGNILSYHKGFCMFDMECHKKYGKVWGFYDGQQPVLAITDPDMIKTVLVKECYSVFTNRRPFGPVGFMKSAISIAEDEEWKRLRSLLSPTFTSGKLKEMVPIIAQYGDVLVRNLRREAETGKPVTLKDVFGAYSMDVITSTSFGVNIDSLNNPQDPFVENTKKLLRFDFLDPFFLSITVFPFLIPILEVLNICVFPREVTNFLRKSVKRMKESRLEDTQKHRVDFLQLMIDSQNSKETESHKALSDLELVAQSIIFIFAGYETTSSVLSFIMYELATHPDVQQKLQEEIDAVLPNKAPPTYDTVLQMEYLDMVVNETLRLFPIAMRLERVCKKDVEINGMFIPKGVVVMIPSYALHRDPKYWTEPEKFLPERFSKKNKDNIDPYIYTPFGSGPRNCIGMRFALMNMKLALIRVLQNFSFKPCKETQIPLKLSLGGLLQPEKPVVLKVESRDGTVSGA
observable: inhibition at 10 µM (%)

In [3]: df
Out[3]:
                                 cpd_smiles           observable  measured_value
0  Cc1ccccc1COc1ccc(-c2ccnn2-c2ccc(Cl)cc2)cc1  inhibition at 10 µM               0

* * *

assay: Mouse PK, IV and PO; type: in vivo; conditions: male, CD-1, plasma, 1 mg/kg; Mouse IV PK, 1 mpk
observable: Vd (L/kg)

>>> print(df.to_string())
                                 cpd_smiles  unit_of_measure  measured_value
0  Cc1ccccc1COc1ccc(-c2ccnn2-c2ccc(Cl)cc2)cc1             L/kg            13.2
